src = ChEMBL document CHEMBL2429835

I'd appreciate it if you could supply IC50 values for the items below.
System: Vero
ASSAY_SUMMARY: Cytotoxicity against african green monkey Vero cells after 72 hrs by MTS-PMS assay
Assay type: cell-based
PARTICULARS: Chlorocebus sabaeus

IN: Look up IC50 for this molecule: CN[C@@H]1[C@H](O[C@H]2[C@H](O[C@H]3[C@H](O)[C@@H](O)[C@H](N=C(N)N)[C@@H](O)[C@@H]3N=C(N)N)O[C@@H](C)[C@]2(O)C=O)O[C@@H](CO)[C@H](O)[C@H]1O
OUT: > 100 µg/mL

IN: Look up IC50 for this molecule: NNC(=O)c1ccncc1
OUT: > 100 µg/mL

IN: Look up IC50 for this molecule: CO[C@H]1/C=C/O[C@@]2(C)Oc3c(C)c(O)c4c(O)c(c(/C=N/N5CCN(C)CC5)c(O)c4c3C2=O)NC(=O)/C(C)=C\C=C\[C@H](C)[C@H](O)[C@@H](C)[C@@H](O)[C@@H](C)[C@H](OC(C)=O)[C@@H]1C
OUT: > 100 µg/mL

IN: Look up IC50 for this molecule: O=c1cc(-c2ccccc2)c2cc(Cl)ccc2o1
OUT: > 100 µg/mL

IN: Look up IC50 for this molecule: O=[N+]([O-])c1cn2c(n1)OC[C@@H](OCc1ccc(OC(F)(F)F)cc1)C2
OUT: > 100 µg/mL

IN: Look up IC50 for this molecule: NC[C@H]1O[C@H](O[C@H]2[C@H](O)[C@@H](O[C@H]3O[C@H](CO)[C@@H](O)[C@H](N)[C@H]3O)[C@H](N)C[C@@H]2N)[C@H](O)[C@@H](O)[C@@H]1O
OUT: > 100 µg/mL

IN: Look up IC50 for this molecule: CCOC(=O)c1c(-c2ccccc2)c2ccc(Cl)cc2oc1=O
OUT: 39.4 µg/mL

IN: Look up IC50 for this molecule: N[C@@H]1CONC1=O
OUT: > 100 µg/mL

IN: Look up IC50 for this molecule: O=c1cc(-c2ccccc2)c2ccc(Cl)cc2o1
OUT: 30.4 µg/mL
